// reported phosphorylation enrichment for each item listed
Target: Jak2 (UniProt O60674)
Sequence (O60674 whole entry, looked up): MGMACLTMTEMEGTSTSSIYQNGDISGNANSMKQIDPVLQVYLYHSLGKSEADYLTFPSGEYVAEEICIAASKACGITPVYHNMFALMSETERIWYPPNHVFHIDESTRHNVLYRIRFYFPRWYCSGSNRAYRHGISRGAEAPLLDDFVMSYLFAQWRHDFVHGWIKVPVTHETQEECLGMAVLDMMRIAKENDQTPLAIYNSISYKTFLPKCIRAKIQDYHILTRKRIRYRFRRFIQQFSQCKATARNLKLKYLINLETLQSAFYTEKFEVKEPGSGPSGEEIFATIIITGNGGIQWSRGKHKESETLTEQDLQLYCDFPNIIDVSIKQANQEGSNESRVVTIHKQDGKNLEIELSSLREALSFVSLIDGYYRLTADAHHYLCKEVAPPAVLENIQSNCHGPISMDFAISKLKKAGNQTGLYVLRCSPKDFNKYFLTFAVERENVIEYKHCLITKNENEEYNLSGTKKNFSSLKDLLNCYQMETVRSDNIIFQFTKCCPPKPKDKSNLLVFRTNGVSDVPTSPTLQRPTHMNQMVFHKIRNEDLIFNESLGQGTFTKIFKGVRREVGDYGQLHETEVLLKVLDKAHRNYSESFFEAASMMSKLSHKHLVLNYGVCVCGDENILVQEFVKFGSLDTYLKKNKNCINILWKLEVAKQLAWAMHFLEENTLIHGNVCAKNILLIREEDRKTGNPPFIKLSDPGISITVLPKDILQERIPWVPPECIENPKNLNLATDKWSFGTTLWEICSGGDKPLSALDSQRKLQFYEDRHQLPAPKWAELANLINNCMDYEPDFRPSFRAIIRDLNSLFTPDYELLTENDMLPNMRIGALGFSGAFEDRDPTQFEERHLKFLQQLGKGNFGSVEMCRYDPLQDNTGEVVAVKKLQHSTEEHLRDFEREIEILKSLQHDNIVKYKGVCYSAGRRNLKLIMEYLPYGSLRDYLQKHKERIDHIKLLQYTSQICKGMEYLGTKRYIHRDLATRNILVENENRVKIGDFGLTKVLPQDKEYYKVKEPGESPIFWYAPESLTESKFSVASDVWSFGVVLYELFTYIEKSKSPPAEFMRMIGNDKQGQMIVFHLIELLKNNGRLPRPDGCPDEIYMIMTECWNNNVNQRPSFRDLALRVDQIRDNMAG
Test: phosphorylation enrichment, bacterial display (enrichment ratio); higher = better substrate or ligand; peptides without Tyr show the background
# answer = number (no unit)

The cases that follow already have their phosphorylation enrichment on record.
HHIDFYKKTTN [FGFR1_Y654_YF] | 0.53
ANAFIYDVQLP [L1CAM_Y420_V421D_YF] | 0.849
QCTSAYLLQPE [NANS_Y188_P189L] | 1.19
REETTYLPLTS [ICAM3_Y527_S525T] | 1.03
PKEEPYKMQEK [SLC5A3_Y565_Q566K] | 0.892

Request the reported phosphorylation enrichment associated with IGEGTYGVLFK [CDK2_Y15_V18L_YF]
0.702

Tell me the measured phosphorylation enrichment of IPGGIYNADLN [CST4_Y35_D36N] , please.
0.746

Requested field: phosphorylation enrichment. Item: TTKAKYKTPIF [PLD2_Y573_T577I_YF]
0.659

// returns reported phosphorylation enrichment for input RLLRGYDQLAY [HLA-C_Y137_S140L]
0.649

What value of phosphorylation enrichment has been reported for the following sequence? IRTDAYVPAMT [RPE65_Y89_R91P]
0.678

---

Recorded SH2 binding enrichment values for a group of sequences are listed next.
Molecular target: c-Src SH2;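 further: peptide library displayed on the E. coli surface as eCPX fusions, selected cells deep-sequenced, score is each peptide's frequency after selection divided by its frequency in the input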
Experiment: SH2 binding enrichment of the phosphorylated peptide, bacterial display (enrichment ratio); higher = better substrate or ligand; peptides without Tyr show the background
When you answer, write just the number.

Worked set:
GVLKEYGVKVL [CPS1_Y529] | 0.408
LGRTVYADCLA [ABCA4_Y2063_L2060R] | 1.71
RNIQQCNSFVS [PRKAR1A_Y373_Y373C] | 0.572
KLSFSYGQALQ [ALDOB_Y302_R304Q] | 0.475
VKPENYRRLDI [VHL_Y175] | 0.459

Any idea what its SH2 binding enrichment is? The sequence is RLLVVYTWTQR [HBB_Y36_P37T]
1.01

Form field: reported SH2 binding enrichment of REETTYLPLTS [ICAM3_Y527_S525T]
0.36

Could you share which SH2 binding enrichment value was measured for VHSGTYQVTVC [MYBPC3_Y1043_R1048C] ?
0.517

Requested field: SH2 binding enrichment. Item: PVPKTYDMLNA [PKP2_Y108_K112N]
1.57

SH2 binding enrichment lookup needed for STSKTYVISQT [RBBP6_Y87_R91Q] , thanks.
0.418

Entry under review: AVLQLYIFVAT [CFTR_Y1014_P1013L] . Reported SH2 binding enrichment?
0.439

Endpoint output: SH2 binding enrichment of VVKTVYSLQPS [KNSTRN_Y87_P92S] . Value?
0.482

If you can, please state the reported SH2 binding enrichment value of DRLAVCIDRVR [LMNA_Y45_Y45C] .
0.541

Look up SH2 binding enrichment: GRQWNYVASML [KLHL4_Y552_S557L]
0.945

---

Target: Fes (UniProt P07332)
Sequence (P07332 whole entry, looked up): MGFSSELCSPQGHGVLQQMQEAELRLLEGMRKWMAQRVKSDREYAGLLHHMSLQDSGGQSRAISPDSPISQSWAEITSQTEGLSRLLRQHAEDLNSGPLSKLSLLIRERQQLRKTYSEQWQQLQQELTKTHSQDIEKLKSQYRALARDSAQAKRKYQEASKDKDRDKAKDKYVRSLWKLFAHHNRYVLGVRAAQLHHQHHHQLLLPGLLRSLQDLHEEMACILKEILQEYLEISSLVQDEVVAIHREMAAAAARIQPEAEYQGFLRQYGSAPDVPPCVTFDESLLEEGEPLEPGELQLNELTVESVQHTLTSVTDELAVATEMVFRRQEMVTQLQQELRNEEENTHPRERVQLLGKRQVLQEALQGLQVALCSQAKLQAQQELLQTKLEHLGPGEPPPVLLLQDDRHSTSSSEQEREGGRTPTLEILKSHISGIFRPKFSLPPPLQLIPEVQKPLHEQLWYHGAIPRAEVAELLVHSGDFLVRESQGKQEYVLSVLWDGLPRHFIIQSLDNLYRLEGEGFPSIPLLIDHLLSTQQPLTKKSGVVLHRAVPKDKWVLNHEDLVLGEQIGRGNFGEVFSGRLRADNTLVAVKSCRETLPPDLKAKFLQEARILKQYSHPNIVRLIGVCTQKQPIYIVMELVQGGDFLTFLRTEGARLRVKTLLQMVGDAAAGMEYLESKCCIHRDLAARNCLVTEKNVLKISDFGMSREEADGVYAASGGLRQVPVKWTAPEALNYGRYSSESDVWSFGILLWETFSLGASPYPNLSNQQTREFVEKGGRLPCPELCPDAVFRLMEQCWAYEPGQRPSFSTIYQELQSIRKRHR
Assay: phosphorylation enrichment, bacterial display (enrichment ratio); higher = better substrate or ligand; peptides without Tyr show the background
Categorized via phosphorylation enrichment: low (below 0.8), moderate (0.8 to below 1), high (1 or more)

Illustrative cases are given below, each with its answer.
SLALFYRKVYH [RBL1_Y792] | high
ASFGPNTRVQS [FOXL2_Y258_Y258N_YF] | low
EEALYYLTRVE [SET_Y119_H118Y] | high

Band of VFFGSYSCPFG [NKAP_Y104_R106C_YF] ?
high

Just checking, what class would you give QNVADYMRFLM [RPL5_Y207_YF] here?
high

Looking at QQLQGYIPSNY [FRK_Y99] , which class would you pick?
low

Lab log: SFPSFYTSHVQ [NEFL_Y443_YF] — assign phosphorylation enrichment category
moderate

Record DRLAVCIDRVR [LMNA_Y45_Y45C] — which class?
high

Which bin should I file FMMMRYSQNIR [SDAD1_Y656_V660I] under?
high

Band for the recorded phosphorylation enrichment of TLARLYHRDST [LRIG1_Y1029_P1031R] ?
moderate

Please let me know in which category the item TSNQEYLDLSM [FGFR1_Y766] belongs.
high

Kindly identify the class of LTMAPYSSVSL [FAM81A_Y24] .
low

In plain terms, what class is LENSTYQFICV [CRB1_Y760_R764C_YF] ?
high

Any idea which band QEIATYPRLLE [KRT14_Y415_R416P] is in?
high

Band for the recorded phosphorylation enrichment of NPIGLYSAEIL [LDB3_Y202_T206I] ?
moderate

Which of the defined bands does the recorded phosphorylation enrichment of MKALGYFAVVK [OPA1_Y498_T503K] sit within?
high

# classify by phosphorylation enrichment band: NIKKEYTKMVQ [PMS2_Y181_A182T]
low

Band for EIVHRYVELLD [AP1S3_Y87] ?
high

Lab note: which band did FRKNTYNVKST [SYNE2_Y575_I574T_YF] land in?
low

Band of QTEAQYRFIFM [PTPN11_Y511_YF] ?
high

Exam item: assign KLIETYSSKNY [PLP1_Y50_F51S] to the correct category.
moderate

Any idea which band TSEASYFKSLN [NGEF_Y288_YF] is in?
low

Which class is correct for the following sequence? TNDMRYPMKSE [TGDS_Y302]
low

Exercise: read the entry NREGVYTVSAP [TGFBI_Y537_F540S] and state which class it falls under.
low

Which class holds GARGRYVMGGP [TNK1_Y277] ?
low

Data provenance: the supplement of paper PMC10065799
